Tested on: P388
test_protocol: Cytotoxicity against mouse P388 cells after 48 hrs by sulforhodamine B assay
Format: functional
condition_summary: P388, 48 h, read-out: ED50 (the source's name)
Would you mind telling me the reported EC50 of each entry?
Numbers only, in µg/mL.

Worked set:
COc1cc(/C=C/[N+](=O)[O-])cc(OC)c1OC 1.1
O=[N+]([O-])/C=C/c1ccc2c(c1)OCO2 2
COc1ccc(/C=C/[N+](=O)[O-])cc1OP(=O)([O-])[O-].[Na+].[Na+] 5.7

Give one value of EC50 per listed molecule.
1. COc1cc(/C=C/[N+](=O)[O-])c(OC)c(OC)c1OC
2. COc1ccc(/C=C\c2cc(OC)c(OC)c(OC)c2)cc1O
3. CCOc1ccc(/C=C/[N+](=O)[O-])cc1
4. COc1ccccc1/C=C/[N+](=O)[O-]
5. COc1ccc(/C=C/[N+](=O)[O-])cc1OC
6. COc1cc(/C=C/[N+](=O)[O-])cc(O[Si](C)(C)C(C)(C)C)c1OC
7. COc1ccc(/C=C/c2cc(OC)c(OC)c(OC)c2)cc1O
8. O=[N+]([O-])/C=C/c1ccc(OP(=O)([O-])[O-])cc1.[Na+].[Na+]

1.3
0.03
3.8
0.51
0.34
32.6
0.28
47.8

====

Would you mind telling me the reported MBC of each entry?
System: Streptococcus pneumoniae
test_protocol: Antimicrobial activity against Streptococcus pneumoniae ATCC 6303 after 24 hrs by broth microdilution susceptibility assay
Type: functional
condition_summary: ATCC 6303, 24 h

Worked set:
COc1ccccc1/C=C/[N+](=O)[O-] > 64 µg/mL
COc1cc(/C=C/[N+](=O)[O-])cc(OC)c1O > 64 µg/mL
COc1cc(/C=C/[N+](=O)[O-])cc(OC)c1 > 64 µg/mL
O=[N+]([O-])/C=C/c1c[nH]c2ccccc12 > 64 µg/mL
COc1ccc(/C=C/[N+](=O)[O-])cc1O > 64 µg/mL
O=[N+]([O-])/C=C/c1ccc2c(c1)OCO2 32 µg/mL
O=[N+]([O-])/C=C/c1ccccc1O > 64 µg/mL

Attention now turns to another entry.
Return the recorded MBC value; entry: "COc1cc(/C=C/[N+](=O)[O-])ccc1OCc1ccccc1"
32 µg/mL

====

Tested on: KM-20L2
test_protocol: Cytotoxicity against human KM20L2 cells after 48 hrs by sulforhodamine B assay
Format: functional
condition_summary: KM-20L2, 48 h
Would you mind telling me the reported GI50 of each entry?

Worked set:
compound	GI50
COc1cc(/C=C/[N+](=O)[O-])cc(OC)c1O	1.1 µg/mL
COc1ccc(/C=C/[N+](=O)[O-])cc1OP(=O)([O-])[O-].[Na+].[Na+]	> 10 µg/mL
CC(=O)Nc1ccc(/C=C/[N+](=O)[O-])cc1	1.1 µg/mL
CCOc1ccc(/C=C/[N+](=O)[O-])cc1	2.4 µg/mL
O=[N+]([O-])/C=C/c1c[nH]c2ccccc12	1.4 µg/mL

Give one value of GI50 per listed compound.
1. COc1cc(/C=C/[N+](=O)[O-])ccc1OCc1ccccc1
2. COc1cc(/C=C/[N+](=O)[O-])ccc1O

1.5 µg/mL
1.1 µg/mL

====

Would you mind telling me the reported EC50 of each entry?
Test system: P388
test_protocol: Cytotoxicity against mouse P388 cells after 48 hrs by sulforhodamine B assay
Type: functional
condition_summary: P388, 48 h, read-out: ED50 (the source's name)
Answers are plain numbers, in µg/mL.

Worked set:
O=[N+]([O-])/C=C/c1ccc(O)cc1 1.5
COc1ccc(/C=C/[N+](=O)[O-])cc1OP(=O)(OCc1ccccc1)OCc1ccccc1 2.2
O=[N+]([O-])/C=C/c1ccccc1O 3.5
COc1ccc(/C=C/[N+](=O)[O-])cc1 1.7
COc1cc(/C=C/[N+](=O)[O-])ccc1O 0.18

Please report the measured EC50 for "COc1cc(OC)c(/C=C/[N+](=O)[O-])c(OC)c1" tested on P388.
14
